- System: U-251
- PROCEDURE_SUMMARY: NCI tumour cell line growth inhibition, 48 h
Activity calls are given as the source filed them. Cut-off read from the data, not from the text of the source: active = GI50 up to about 1.1 µM and inactive = higher.
VALUE_KIND: GI50

Exercise: Report GI50 for O=[N+]([O-])C(C=C(n1nnc2ccccc21)n1nnc2ccccc21)=C(n1nnc2ccccc21)n1nnc2ccccc21 please.
Solution: > 100 µM (inactive)

Exercise: Report GI50 for CN(C(=O)C12C3C4C1C1C2C3C41C#N)C(C)(C)C (centres undefined) please.
Solution: > 100 µM (inactive)

Exercise: Report GI50 for CS(=O)(=O)c1nc(-c2cc3c(c(S(C)(=O)=O)n2)CCC3)cc2c1CCCC2 please.
Solution: 27.1 µM (inactive)

Exercise: Report GI50 for N#Cc1nnn(C2CCCCC2)c1O please.
Solution: > 100 µM (inactive)

Exercise: Report GI50 for COc1cc(Cn2c3ccccc3c3cc(C)c4c(c32)C=CC(C)(CCC=C(C)C)O4)cc2c1[nH]c1ccccc12 (centres undefined) please.
Solution: > 100 µM (inactive)

Exercise: Report GI50 for COC(=O)CCC(=O)Nc1cc(C)ccc1C please.
Solution: > 100 µM (inactive)

Exercise: Report GI50 for CC(C)C1=CC(=O)C(C)(C2C(O)CC3(C)C4CC=C5C(CCC(OC6OC(CO)C(O)C(O)C6OC6OC(C)C(O)C(O)C6O)C5(C)C)C4(C)C(=O)CC23C)O1 (centres undefined) please.
Solution: > 100 µM (inactive)

Exercise: Report GI50 for O=C(C[n+]1ccccc1)NNC(=O)/C(=C/c1ccc2c(c1)OCO2)NC(=O)c1ccccc1 please.
Solution: 28.2 µM (inactive)

Exercise: Report GI50 for COC(=O)N/N=c1\cc(C(=O)Nc2ccc(C)c(C)c2)oc2cc(O)ccc12 please.
Solution: > 100 µM (inactive)

###

Give GI50 for every item shown.
- System: HCT-116
- PROCEDURE_SUMMARY: NCI tumour cell line growth inhibition, 48 h
Activity calls are given as the source filed them. Cut-off read from the data, not from the text of the source: active = GI50 up to about 1.1 µM and inactive = higher.

Exercise: Request body: readout GI50, system HCT-116, query CN1CCc2c1nc(-c1ccc([N+](=O)[O-])cc1)c1c2N(C)CC1 . Return the value.
Solution: 15.9 µM (inactive)

Exercise: Request body: readout GI50, system HCT-116, query Cc1cccc2c1CC1(C2)Cc2c(C)cccc2C1=O (stereo unspecified) . Return the value.
Solution: 16.5 µM (inactive)

Exercise: Request body: readout GI50, system HCT-116, query CCOC(=O)C1C(=O)CC(=O)C2CCCCC21 (stereo unspecified) . Return the value.
Solution: > 100 µM (inactive)

Exercise: Request body: readout GI50, system HCT-116, query C[N+](C)(C)CC1CCCC(C[N+](C)(C)C)C1O (stereo unspecified) . Return the value.
Solution: > 100 µM (inactive)

Exercise: Request body: readout GI50, system HCT-116, query OC[C@H]1O[C@@H](n2cnc3c(S)ncnc32)[C@H](O)[C@@H]1O . Return the value.
Solution: 2390 µM (inactive)

Exercise: Request body: readout GI50, system HCT-116, query CC12C(=O)CC(CC1=O)C2(C)C . Return the value.
Solution: > 100 µM (inactive)

Exercise: Request body: readout GI50, system HCT-116, query C[n+]1c2ccccc2c(C(=O)Nc2ccc(S(=O)(=O)Nc3ccnn3-c3ccccc3)cc2)c2ccccc21 . Return the value.
Solution: > 100 µM (inactive)

Exercise: Request body: readout GI50, system HCT-116, query Cc1cc2c(=O)n(-c3ccc(F)cc3)c(C)nc2c(C(=O)O)c1C . Return the value.
Solution: > 100 µM (inactive)

Exercise: Request body: readout GI50, system HCT-116, query CC(C)Oc1cc(O)c2c(c1)OCC=C2CCC(=O)O . Return the value.
Solution: 20.4 µM (inactive)

Exercise: Request body: readout GI50, system HCT-116, query CC(C)(C)OC(=O)NCC(=O)N1CCCN(C(=O)CNC(=O)OC(C)(C)C)CC1 . Return the value.
Solution: > 100 µM (inactive)

Exercise: Request body: readout GI50, system HCT-116, query NC(=S)SC1=NC(=O)C2(NN1)c1ccccc1-c1ccccc12 . Return the value.
Solution: > 10 µM (inactive)

###

Give GI50 for every item shown.
- Tested on: SF-295
- PROCEDURE_SUMMARY: NCI tumour cell line growth inhibition, 48 h
Active and inactive are the calls of the source. Rule as the data show it: active = GI50 up to about 1.1 µM and inactive = higher.

Exercise: Report GI50 for CCOC(OCC)[C@@H]1C[C@@H]2N(O[C@H](OC3CCCC3(c3ccccc3)c3ccccc3)[C@H](OC(C)=O)[C@@]2(CC)Cc2ccc(OC)c(OC)c2)O1 (some centres undefined) please.
Solution: > 100 µM (inactive)

Exercise: Report GI50 for COc1ccc(OC)c(/C=C2/C(=O)N/C(=N\C(C)=O)N2C)c1 please.
Solution: > 100 µM (inactive)

Exercise: Report GI50 for NNC(=O)C(=O)N/N=C(\CCCC(=O)Nc1ccc(Cl)cc1)CC(=O)c1ccc(F)cc1 please.
Solution: > 100 µM (inactive)

Exercise: Report GI50 for CCOc1cccc(/C=N/N=C2\C(=O)Nc3c(Cl)cc(Cl)cc32)c1O please.
Solution: 62.5 µM (inactive)

Exercise: Report GI50 for CC(=O)OCC1OC(N=[N+]=[N-])C(OC(C)=O)C(OC(C)=O)C1OC1OC(COC(C)=O)C(OC(C)=O)C(OC(C)=O)C1OC(C)=O (centres undefined) please.
Solution: > 100 µM (inactive)

Exercise: Report GI50 for CCOC1CC2OC(=O)C1C=C2C(=O)OC (centres undefined) please.
Solution: > 100 µM (inactive)

Exercise: Report GI50 for CCOC(=O)CNC1=NNS(=O)(=O)c2ccccc21 please.
Solution: > 100 µM (inactive)

Exercise: Report GI50 for Cc1cccc(N2CCN(S(=O)(=O)c3ccc(Cl)cc3)C2=N)c1C please.
Solution: 77.4 µM (inactive)

Exercise: Report GI50 for O=c1[nH]c(=O)n(C2CC(O)C(CS)O2)cc1F (centres undefined) please.
Solution: 47 µM (inactive)

###

- System: MDA-MB-435
- PROCEDURE_SUMMARY: NCI tumour cell line growth inhibition, 48 h
Structures can show the parent of a compound that is named as a salt. Activity calls are given as the source filed them. Rule as the data show it: active = GI50 up to about 1.1 µM and inactive = higher. Starred links: 1 amine or outer side, 2 acyl side, 3 side chain; linkers in the order of their positions; H or OH if unused. Non-standard residues stand in square brackets, D forms with d. Residues, ends and D or L forms follow the SMILES beside them. X4 = C[C@H](N[*:1])C(=O)C(C)(C)C(=O)[*:2]; Hmpa(2S,3S) = CC[C@H](C)[C@H](O)C(=O)O; NMeY = CN[C@@H](Cc1ccc(O)cc1)C(=O)O; NMeL = CN[C@@H](CC(C)C)C(=O)O; NMeV = CN[C@H](C(=O)O)C(C)C; βAla = NCCC(=O)O
Outcomes you can answer with include only these: true (active), false (inactive)

Exercise: Can you look up the reported call for CC(C)Oc1cc(O)c2c(c1)OCC=C2CCC(=O)O for me?
Solution: false

Exercise: Can you look up the reported call for C=C1C(=O)O[C@H]2[C@H](OC(C)=O)[C@@H](C)CCC/C(C)=C/CC[C@@]3(C)O[C@@H]3C[C@@H]12 for me?
Solution: false

Exercise: Can you look up the reported call for C=CCC1NCCC2=C1C(S(=O)(=O)c1ccc(C)cc1)c1ccccc12 (stereo not drawn) for me?
Solution: false

Exercise: Can you look up the reported call for O=C(O)c1cnc(-n2[nH]c3c(c2=O)CCCC3)[nH]c1=O for me?
Solution: false

Exercise: Can you look up the reported call for CC[C@H](C)[C@@H]1OC(=O)CCNC(=O)[C@@H](C)NC(=O)C(C)(C)C(=O)[C@H](C)NC(=O)[C@H](Cc2ccc(OC)cc2)N(C)C(=O)[C@H](C(C)C)N(C)C(=O)CNC(=O)[C@H](CC(C)C)N(C)C(=O)CNC1=O (cyclo(G[NMeL]G[NMeV][NMeY](Me)[X4][dA][βAla][Hmpa(2S,3S)])) for me?
Solution: true

Exercise: Can you look up the reported call for CCCCn1cc(C(=O)O)c(=O)c2c3sccc3ccc21 for me?
Solution: false

Exercise: Can you look up the reported call for c1ccc(-c2cc(-c3ccccc3)nc(-c3ccncc3)c2)cc1 for me?
Solution: false

Exercise: Can you look up the reported call for CC1(C)Oc2ccc(Cl)cc2C12CC2 for me?
Solution: false

Exercise: Can you look up the reported call for CC(C)(C)n1[nH]c(=O)n(C(C)(C)C)c1=O for me?
Solution: false

Exercise: Can you look up the reported call for [N-]=[N+]=CC(=O)OC1Cc2ccccc2C1 for me?
Solution: false

Exercise: Can you look up the reported call for Cc1cc2ccccc2n1CC(=O)NCC(C)C for me?
Solution: false

Exercise: Can you look up the reported call for O=C1OC(c2ccccc2)=N/C1=C\c1cccnc1 for me?
Solution: false

Exercise: Can you look up the reported call for Cc1n(CC(C)C)c2c([n+]1C)C(=O)c1ccccc1C2=O for me?
Solution: true

Exercise: Can you look up the reported call for CC1NOC(NS(=O)(=O)c2ccc(/N=N/c3c(O)c(C(=O)O)cc4ccccc34)cc2)C1C (stereo not drawn) for me?
Solution: false

Exercise: Can you look up the reported call for COC(=O)c1c(C(=O)OC)c2ccccn2c1-c1cc(C)cc2c1C(=O)C=CC2=O for me?
Solution: false

Exercise: Can you look up the reported call for NC(=O)C(=O)C(c1ccccc1)S(=O)(=O)Cc1ccccc1 (stereo not drawn) for me?
Solution: false

Exercise: Can you look up the reported call for Cc1cc(C)nc(NC(=S)Nc2ccc([N+](=O)[O-])cc2)c1 for me?
Solution: false

Exercise: Can you look up the reported call for O=[N+]([O-])C(C=C(n1nnc2ccccc21)n1nnc2ccccc21)=C(n1nnc2ccccc21)n1nnc2ccccc21 for me?
Solution: false

Exercise: Can you look up the reported call for CC(=O)N(C)c1ccc(Nc2cc(C)nc3ccc4nc[nH]c4c23)cc1 [ACODAZOLE HYDROCHLORIDE] for me?
Solution: false

Exercise: Can you look up the reported call for COc1ccccc1C#C/C=C\C#Cc1ccccc1C#N for me?
Solution: false

Exercise: Can you look up the reported call for CC(C)c1cc(C(C)C)c(Cl)c(Cl)c1O.CC(C)c1cc(Cl)c(O)c(C(C)C)c1Cl for me?
Solution: false

Exercise: Can you look up the reported call for CC[C@@H]1/C=C/C=C/C[C@H](C)[C@@H](O)[C@](C)(O)C(=O)[C@H](C)[C@@H](O)[C@H](C)C(=O)[C@H](C)[C@@H](O)[C@H](C)/C=C/C(=O)O[C@H]2[C@@H](C)[C@@H](CC1)O[C@]1(O[C@H](CC(C)O)[C@H](C)CC1=O)[C@@H]2C (stereo partly drawn) for me?
Solution: false

Exercise: Can you look up the reported call for O=C(O)c1ccccc1/C=N\N(CCO)C1=NCCN1 for me?
Solution: false

Exercise: Can you look up the reported call for CCOC(=O)C(CC(C)C)NC(=O)C(N)Cc1ccc(N(CCCl)CCCl)cc1 (stereo not drawn) for me?
Solution: false

Exercise: Can you look up the reported call for [N-]=[N+]=NC1(c2ccccc2)C(=O)Nc2ccccc2C1=O (stereo not drawn) for me?
Solution: false

Exercise: Can you look up the reported call for COc1cc(/N=N/c2cccc(S(N)(=O)=O)c2)c2ccccc2c1N for me?
Solution: false

Exercise: Can you look up the reported call for COc1cccc(NC(=O)CC(=O)Nc2cccc(OC)c2)c1 for me?
Solution: false

Exercise: Can you look up the reported call for Oc1ccc2ccccc2c1/N=N/c1ccc(/N=N/c2ccccc2)cc1 for me?
Solution: false

Exercise: Can you look up the reported call for [N-]=[N+]=Nc1ccccc1C(=O)N1C(=O)c2ccccc2C(=O)N(C(=O)c2ccccc2N=[N+]=[N-])c2ccccc21 for me?
Solution: false

Exercise: Can you look up the reported call for CN1C(=O)c2ccccc2NC(=O)C12O[C@@H]2c1cccc(O)c1 (stereo partly drawn) for me?
Solution: false

Exercise: Can you look up the reported call for Cc1ccccc1C(=O)C#Cc1cn(C2CC(O)C(CO)O2)c(=O)[nH]c1=O (stereo not drawn) for me?
Solution: false

Exercise: Can you look up the reported call for CC1(c2cccs2)CC(c2cccs2)=C(C#N)C(=C(C#N)C#N)N1 (stereo not drawn) for me?
Solution: false

Exercise: Can you look up the reported call for C[n+]1c2ccccc2c(C(=O)Nc2ccc(S(=O)(=O)Nc3ccnn3-c3ccccc3)cc2)c2ccccc21 for me?
Solution: false

Exercise: Can you look up the reported call for COC(=O)c1csc(-c2nc(CCNC(=O)OC(C)(C)C)sc2Br)n1 for me?
Solution: false

Exercise: Can you look up the reported call for CN(C)CCN(C)P12(Oc3ccccc3O1)Oc1c(Cl)c(Cl)c(Cl)c(Cl)c1O2 for me?
Solution: false

Exercise: Can you look up the reported call for COc1nc2nccnc2c(=O)n1C for me?
Solution: false

Exercise: Can you look up the reported call for ClCCN1CCO/C1=N/c1ccc2c(c1)CCCC2 for me?
Solution: false

Exercise: Can you look up the reported call for O=C1C(Br)=CC2(C=C1Br)CCNC1=C2C2=NCCc3c[nH]c(c32)C1=O for me?
Solution: true
